# credit: PubChem BioAssay AID1159580

assay: chemical genetic growth profiling, strain panel (AID 1159580);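 note: tested at 20 µM; growth read once vehicle control cultures reached saturation at 30 °C; 1 = growth at the plate median or of vehicle wells; lower values mean less growth of the strain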; settings: S. cerevisiae deletion strains, growth OD, locus YOR001W, strain rrp6, stronger effect = lower value
Among all 5,500 compounds or so, about 2,000 (36%) were called active. Not shown: some 18% with an inconclusive outcome. This is one part of the list.
PROPERTY_NAME: normalized growth

Use the examples below as a reference point.
INSERT INTO measurements (compound, property_name, measured) VALUES
  ('COc1ccc2cc1Oc1ccc(cc1)C[C@H]1c3c(cc4c(c3Oc3cc5c(cc3OC)CCN(C)[C@@H]5C2)OCO4)CCN1C', 'normalized growth', '0.953 (inactive)'),
  ('CNc1ccccc1C(=O)N1CCc2c([nH]c3ccccc23)C1=O', 'normalized growth', '1.01 (inactive)'),
  ('CN1CCc2cc3c(cc2C1O)OCO3 (configuration not stated)', 'normalized growth', '0.961 (inactive)');

Prompt: I'd like to know its normalized growth. The compound in question is COC1C(O)C(O)C(O)[C@@H](O)C1O (some centres not stated)
Completion: 0.995 (inactive)

Prompt: I'd like to know its normalized growth. The compound in question is `O=C(O)COc1cc(Cl)c(Cl)cc1Cl`
Completion: 1 (inactive)

Prompt: I'd like to know its normalized growth. The compound in question is `CC(=O)CC(=O)CCC(=O)O`
Completion: 1.01 (inactive)

Prompt: I'd like to know its normalized growth. The compound in question is `C[C@@H](N)CO`
Completion: 1.01 (inactive)

Prompt: I'd like to know its normalized growth. The compound in question is `COc1ccc(C(=O)c2ccccc2)c(O)c1`
Completion: 0.712 (active)

Prompt: I'd like to know its normalized growth. The compound in question is COC(=O)C1[C@H]2C[C@H]3c4[nH]c5ccccc5c4CCN3C[C@@H]2CC[C@@H]1O (some centres not stated)
Completion: 0.961 (inactive)

Prompt: I'd like to know its normalized growth. The compound in question is CC(=O)O[C@H]1C(=O)[C@@]2(C)C([C@H](OC(=O)c3ccccc3)[C@]3(O)C[C@H](OC(=O)[C@H](O)[C@@H](NC(=O)c4ccccc4)c4ccccc4)C(C)=C1C3(C)C)[C@]1(OC(C)=O)CO[C@@H]1C[C@@H]2O (some centres not stated)
Completion: 0.902 (inactive)

Prompt: I'd like to know its normalized growth. The compound in question is `O=C(/C=C/C=C/c1ccc2c(c1)OCO2)N1CCCCC1`
Completion: 0.956 (inactive)

Prompt: I'd like to know its normalized growth. The compound in question is `CN=C(NC#N)NCCSCc1nc(N=C(N)N)cs1`
Completion: 0.975 (inactive)

###

experiment: chemical genetic growth profiling, strain panel (AID 1159580); conditions: S. cerevisiae deletion strains, growth OD, locus YJL187C, strain SWE1, stronger effect = lower value
The whole screen tested about 5,500 compounds, of which about 2,000 (36%) were called active. Another 18% or so got no clear call; they are omitted. The list shows a part of the results.
Each entry below carries its recorded normalized growth.
The response must contain the number and no unit.

INSERT INTO measurements (compound, measured) VALUES
  ('CN=C(NC#N)NCCSCc1nc(N=C(N)N)cs1', 0.985),
  ('COc1ccc2c(c1)OC[C@@H](Cc1ccc(OC)c(OC)c1)[C@@H]2O', 0.998),
  ('Cc1cc(=O)c2c(O)c(C)c(O)cc2o1', 1),
  ('CCC1(C)CC(=O)NC1=O (stereo not drawn)', 0.98),
  ('Cc1cc(NC(=O)C(Cl)(Cl)Cl)n(-c2ccccc2)n1', 0.979),
  ('C1CCc2nnnn2CC1', 1.02),
  ('O=[N+]([O-])c1cc(C(F)(F)F)ccc1N1CCN(CCO)CC1', 1),
  ('COC(=O)[C@@H]1C(O)CC[C@H]2CN3CCc4c([nH]c5ccccc45)[C@@H]3C[C@@H]21 (stereo partly drawn)', 1.01),
  ('CC1(C)S[C@@H]2[C@H](NC(=O)[C@H](NC(=O)N3CCNC3=O)c3ccccc3)C(=O)N2C1C(=O)O (stereo partly drawn)', 0.988),
  ('Nc1cc(-c2ccc(Cl)cc2)nc(N)n1', 1);

Prompt: I'd like to know its normalized growth. The compound in question is CC(=O)O[C@]1(C(C)=O)CCC2C3C[C@H](C)C4=CC(=O)CC[C@]4(C)C3CC[C@@]21C (stereo partly drawn)
Completion: 0.976

Prompt: I'd like to know its normalized growth. The compound in question is `CCCCCCCc1c(O)c2ccccc2[nH]c1=O`
Completion: 1

Prompt: I'd like to know its normalized growth. The compound in question is `COc1cc(O)c(C(=O)c2ccccc2)cc1O`
Completion: 0.996

###

experiment: chemical genetic growth profiling, strain panel (AID 1159580);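 note: tested at 20 µM; growth read once vehicle control cultures reached saturation at 30 °C; 1 = growth at the plate median or of vehicle wells; lower values mean less growth of the strain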; details: S. cerevisiae deletion strains, growth OD, locus YOR061W, strain CKA2, stronger effect = lower value
The whole screen tested about 5,500 compounds, of which about 2,000 (36%) were called active. Roughly 18% stayed inconclusive and do not appear here. This is one part of the list.
PROPERTY_NAME: normalized growth

INSERT INTO measurements (compound, property_name, measured) VALUES
  ('Cc1c(C(=O)N2CCCCC2)cc(-c2ccccc2)n1-c1ccccc1', 'normalized growth', '0.918 (inactive)'),
  ('COc1ccc(CC2c3cc(OC)c(OC)cc3CCN2C)cc1OC (stereo not drawn)', 'normalized growth', '0.964 (inactive)'),
  ('CNC1(C)C2CCC(C2)C1(C)C (stereo not drawn)', 'normalized growth', '0.958 (inactive)'),
  ('COc1ccc(-c2coc3c(OC)c(OC)cc(OC)c3c2=O)cc1', 'normalized growth', '0.998 (inactive)'),
  ('COc1ccc(C[C@H]2NC[C@H](O)[C@H]2OC(C)=O)cc1', 'normalized growth', '0.624 (active)');

Prompt: I'd like to know its normalized growth. The compound in question is CCC1(C)CC(=O)NC1=O (stereo not drawn)
Completion: 1.01 (inactive)

Prompt: I'd like to know its normalized growth. The compound in question is `COc1cc(OC)c2c(c1)O[C@H](c1ccc(OC)c(OC)c1)[C@@H](O)C2`
Completion: 1.02 (inactive)

Prompt: I'd like to know its normalized growth. The compound in question is COc1cc(OC)c2c(c1)OC(c1ccc(OC)c(OC)c1)C(O)C2 (stereo not drawn)
Completion: 1.01 (inactive)

Prompt: I'd like to know its normalized growth. The compound in question is `c1ccc(CN(CC2=NCCN2)c2ccccc2)cc1`
Completion: 1.01 (inactive)

###

assay: chemical genetic growth profiling, strain panel (AID 1159580);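 note: tested at 20 µM; growth read once vehicle control cultures reached saturation at 30 °C; 1 = growth at the plate median or of vehicle wells; lower values mean less growth of the strain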; conditions: S. cerevisiae deletion strains, growth OD, locus YHR087W, strain rtc3, stronger effect = lower value
In all, about 5,500 compounds went through this assay and about 2,000 (36%) were called active. About 18% were inconclusive and are not listed. The list shows a part of the results.
PROPERTY_NAME: normalized growth
The response must contain the number and no unit.

Use the examples below as a reference point.
INSERT INTO assay_data (compound, property_name, measured) VALUES
  ('Nc1cc(-c2ccc(Cl)cc2)nc(N)n1', 'normalized growth', 0.993),
  ('CC12CCC(C1)C(C)(C)C2NC(=O)c1cccs1 (stereo not given)', 'normalized growth', 0.983),
  ('CCOC(=O)COc1ccc2c(c1)OC(C)(C)CC2=O', 'normalized growth', 0.976),
  ('CCCC(C)(SCC(=O)O)SCC(=O)O', 'normalized growth', 0.98),
  ('COc1ccccc1CC(=O)NC1CCN(Cc2ccccc2)CC1', 'normalized growth', 0.998),
  ('CN(C)/C=C1\C(=O)c2ccccc2N(C)S1(=O)=O', 'normalized growth', 0.954);

Prompt: I'd like to know its normalized growth. The compound in question is O=C(O)COCC(=O)N1CCc2c([nH]c3ccccc23)C1C(F)(F)F (stereo not given)
Completion: 1.01

Prompt: I'd like to know its normalized growth. The compound in question is `COc1ccc(OC)c(C(=O)c2cc(OC)c(OC)c(OC)c2)c1`
Completion: 1.06

Prompt: I'd like to know its normalized growth. The compound in question is `Cc1ccc(Oc2ccc(C)cc2)cc1`
Completion: 1.03

Prompt: I'd like to know its normalized growth. The compound in question is `CN(C)/C=C(\C#N)C(=O)Nc1ccc(F)c(Cl)c1`
Completion: 1.01

###

Each entry below carries its recorded normalized growth.
assay: chemical genetic growth profiling, strain panel (AID 1159580);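 note: tested at 20 µM; growth read once vehicle control cultures reached saturation at 30 °C; 1 = growth at the plate median or of vehicle wells; lower values mean less growth of the strain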; details: S. cerevisiae deletion strains, growth OD, locus YOR080W, strain dia2, stronger effect = lower value
Among all 5,500 compounds or so, about 2,000 (36%) were called active. Not shown: some 18% with an inconclusive outcome. The list shows a part of the results.

Use the examples below as a reference point.
INSERT INTO assay_data (compound, measured) VALUES
  ('O=C1C[C@@H](c2ccc(O)cc2)Oc2cc(O)cc(O)c21', '0.976 (inactive)'),
  ('CN1CCCC(n2nc(Cc3ccc(Cl)cc3)c3ccccc3c2=O)CC1 (stereo not drawn)', '0.98 (inactive)'),
  ('COc1ccc(C(=O)c2ccccc2O)c(O)c1', '0.919 (inactive)');

Prompt: I'd like to know its normalized growth. The compound in question is OCC(O)Cc1ccc2c(c1)OCO2 (stereo not drawn)
Completion: 0.988 (inactive)

Prompt: I'd like to know its normalized growth. The compound in question is `COc1cc(O)c(C(=O)c2ccccc2)cc1O`
Completion: 1.02 (inactive)

Prompt: I'd like to know its normalized growth. The compound in question is `COc1cc(O)c2c(=O)cc(C)oc2c1CC=C(C)C`
Completion: 0.993 (inactive)

Prompt: I'd like to know its normalized growth. The compound in question is `CCc1nc(N)nc(N)c1-c1ccc(Cl)cc1`
Completion: 0.951 (inactive)

Prompt: I'd like to know its normalized growth. The compound in question is `COc1cccc([C@]2(O)CCCC[C@H]2CN(C)C)c1`
Completion: 0.969 (inactive)

Prompt: I'd like to know its normalized growth. The compound in question is `OC(CCN1CCCCC1)(c1ccccc1)c1ccccc1`
Completion: 0.984 (inactive)
